Test: qHTS assay for small molecule antagonists of retinoid X receptor alpha signaling (AID 588546);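 further: cells stimulated with 9-cis-retinoic acid as agonist; on the % scale 0 is the no-effect control and ±100 the full control effect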
Conditions: HEK293T RXRa-UAS-bla, beta-lactamase ratio, antagonist mode; measured here: W530 green channel, cytotoxicity proxy
Results filed as inconclusive are left out.
readout: max response (%)

INSERT INTO measurements (compound, readout, readout_unit, recorded_result) VALUES
  ('C/C=C/c1ccc2c(c1)OCO2', 'max response', '%', -8.06),
  ('C=CC(=C)C', 'max response', '%', -1.77),
  ('C=CC(=O)OCC', 'max response', '%', -8.36),
  ('CCC(=O)Nc1ccc(Cl)c(Cl)c1', 'max response', '%', -13.9),
  ('O=C(O)COc1cc(Cl)c(Cl)cc1Cl', 'max response', '%', 20.3),
  ('O=C(Cl)/C=C/C(=O)Cl', 'max response', '%', -3.67),
  ('S=C=Nc1cccc2ccccc12', 'max response', '%', -0.704),
  ('CNC(=O)Oc1cccc2c1OC(C)(C)O2', 'max response', '%', -10.6),
  ('OCC(Br)CBr (centres undefined)', 'max response', '%', -6.01),
  ('Clc1nc(Cl)nc(Nc2ccccc2Cl)n1', 'max response', '%', 1.32),
  ('C[C@H]1CCCC(=O)CCC/C=C/c2cc(O)cc(O)c2C(=O)O1', 'max response', '%', 17.7),
  ('CC(C)Nc1nc(Cl)nc(NC(C)C)n1', 'max response', '%', -10.2),
  ('ClC1=C(Cl)C2(Cl)C3C(Cl)C=CC3C1(Cl)C2(Cl)Cl (centres undefined)', 'max response', '%', -16.9),
  ('Clc1cc(Cl)c(-c2cc(Cl)c(Cl)cc2Cl)cc1Cl', 'max response', '%', 9.9);
